# assay.protocol: Repeat once-weekly IV dose toxicokinetics in dogs
# Type: in vivo
# cond: male, dog, in vivo, iv, 13.9 mg/kg, dogs M, 13.9 mg/kg once-weekly IV, Day 13
# Experimental: Overall, drug concentrations increased with ascending dose, noting that the mean profiles at the two highest dose levels were overlapping. Systemic exposure (AUClast) to pafolacianine was approximately dose-proportional over the range of doses administered (0.9 to 13.9 mg/kg) and within the observed variability (Table 5). […] On both Day 0 and Day 13, CL was slow (relative to hepatic blood flow) and Vss was moderate. Mean T1/2 ranged from approximately 13 to 18 hours.
measurement.label: AUC(0-inf) (µg·h/mL)
// units = µg·h/mL; emit number, no label

Which AUC(0-inf) is reported for this compound? CC1(C)C(=CC=C2CCCC(C=CC3=[N+](CCCCS(=O)(=O)[O-])c4ccc(S(=O)(=O)O)cc4C3(C)C)=C2Oc2ccc(CC(NC(=O)c3ccc(NCc4cnc5nc(N)[nH]c(=O)c5n4)cc3)C(=O)O)cc2)N(CCCCS(=O)(=O)O)c2ccc(S(=O)(=O)O)cc21 (stereo not shown)
117
